Provenance of the data: the supplement of paper PMC6555819

- Tested on: LXRb homodimer (NR concentration 270 nM)
- protocol-description: PBM binding z-score (relative to random genomic background probes); higher = stronger binding; sequences stand for … in GC…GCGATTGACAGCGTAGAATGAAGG
measure: PBM binding z-score
# respond with the number and nothing more

Solved entries:
ACTAGCAGGCCGAGTTTGGGTCACTCAAACAAAG    -0.928
CCGACTGGGGCTTAAGGTTACCATAAGCCAGCCC    -1.22
AGAACGAGGGCAATGAGTTGATTGCACGGGTGGC    -0.715
CCGACTGGGGCAGAAAGGTTACAATACCATCCGG    -0.707
CCGACTGGGGCAAAAGTTACCATACTCAGTACGA    -0.764
ACAGACAGGTGAGTGAAGGTAACTCATCTGGACG    -0.306
TGAACGAGGTTATAAGATCAGGGAACGTTGCAAA    -0.589
TCTCGGAGGACACGAAAGGTCAGATCTCGACATC    0.385
TCTAATTGGTCACGGAGGTCACACACGACGGGTA    1.6
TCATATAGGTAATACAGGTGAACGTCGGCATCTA    0.51

Q) Give me measured PBM binding z-score, please, for this sequence: "CCTCGGAGTACAACAGGAGGTCAGAGCTGCCAGA"
A) -0.438

Q) Give me measured PBM binding z-score, please, for this sequence: "ACTAGCAGGCCAAGTTTGGGTCACTCTAACAAAG"
A) -0.928

Q) Give me measured PBM binding z-score, please, for this sequence: "TGAATGAGGTTAAAGATCACGGAACGTGGCGTCG"
A) 0.233

Q) Give me measured PBM binding z-score, please, for this sequence: "CTACCAAGGTGAACAAAGTCGTTGATTACTATTC"
A) -0.488

Q) Give me measured PBM binding z-score, please, for this sequence: "ATCACTAGGTAAGACTCAGTTCAGTGAAGAACGC"
A) 0.239

Q) Give me measured PBM binding z-score, please, for this sequence: "CCTACTGGGCCAACGTCATTGATCAGTCAAAGCA"
A) -0.8

Q) Give me measured PBM binding z-score, please, for this sequence: "ATACCAAGGTGATCGTGAGGTCGTTGGTACTAAC"
A) 0.221

Q) Give me measured PBM binding z-score, please, for this sequence: "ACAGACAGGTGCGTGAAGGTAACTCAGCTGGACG"
A) -0.883

---

- Test system: LXRb homodimer (NR concentration 270 nM)
- protocol-description: PBM binding z-score (relative to random genomic background probes); higher = stronger binding; sequences stand for … in GC…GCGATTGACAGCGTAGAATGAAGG
measure: PBM binding z-score
# respond with the number and nothing more

Solved entries:
CGAACTAGGTCATCCAGGACAGTGGATACATTGA    0.307
CGTTACGGGTCACTGACAGGTTATAGCATTTGGA    -0.201

Q) Give me measured PBM binding z-score, please, for this sequence: "TCATATAGGTAATACAGGTGAAAGTAGGCATCTA"
A) 0.295

---

The entries below are paired with their reported PBM binding z-score.
- Test system: PPARg:RXRa 270nM:90nM, anti-RXR (NR concentration 270 nM, RXRa partner concentration 90 nM)
- protocol-description: PBM binding z-score (relative to random genomic background probes); higher = stronger binding; sequences stand for … in GC…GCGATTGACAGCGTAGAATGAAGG
# respond with the number and nothing more

Solved entries:
CCGACTGCGGCAAGGTTACCATAACGCACAGCCA    -0.189
TGTAGTTGGTCACGGAGGTCACACACGACGGGTA    3.52
CATTACGGGTCACTCCAGGTTATAGCATCGGAGT    4.77
GATACAGGGTCAAGGCCAGTGTACGCGTATTGAT    5.76
GCTAGCAGTCCATTTGGGTCACTCAATGACGGGC    0.105

From here, focus on the item given below.
Q) Give me measured PBM binding z-score, please, for this sequence: "GTACCAAGGTGAATTGGTCGTTGATGAGTAGGCG"
A) 0.173

---

The entries below are paired with their reported PBM binding z-score.
- Tested on: PPARg:RXRa 30nM:10nM, anti-RXR (NR concentration 30 nM, RXRa partner concentration 10 nM)
- protocol-description: PBM binding z-score (relative to random genomic background probes); higher = stronger binding; sequences stand for … in GC…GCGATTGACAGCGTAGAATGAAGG
# respond with the number and nothing more

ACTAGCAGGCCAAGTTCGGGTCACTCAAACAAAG    -0.79
TCTTATAGGTAAAGGTGAAAGTCGAACGATATGA    4.42

Q) Give me measured PBM binding z-score, please, for this sequence: "AGCTCTAGGTAAAGATAGTTCAGTGAATGCAAAT"
A) -0.22

Q) Give me measured PBM binding z-score, please, for this sequence: "TTACCAAGGTGAAAGGTCGTTGACGCACGCCTTG"
A) 6.9

Q) Give me measured PBM binding z-score, please, for this sequence: "CCTTACGGGTCACGAGGTTATTGCACGACGAGCG"
A) 3.32

Q) Give me measured PBM binding z-score, please, for this sequence: "ACTATTAGTTGAGACGACGGCAACCGATAGGTTG"
A) -0.098

Q) Give me measured PBM binding z-score, please, for this sequence: "CCTACTTGGCCAAAAAGGTCATTGATGCCGATAA"
A) 0.755

Q) Give me measured PBM binding z-score, please, for this sequence: "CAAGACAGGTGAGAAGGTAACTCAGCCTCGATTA"
A) 0.302

Q) Give me measured PBM binding z-score, please, for this sequence: "CCTACTGGGCCAAAGGTCAATGATTCCAATGCTC"
A) 10

Q) Give me measured PBM binding z-score, please, for this sequence: "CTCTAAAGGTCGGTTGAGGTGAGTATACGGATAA"
A) 0.122

Q) Give me measured PBM binding z-score, please, for this sequence: "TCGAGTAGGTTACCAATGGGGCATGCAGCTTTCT"
A) 0.922

Q) Give me measured PBM binding z-score, please, for this sequence: "AGTCAAAGTTCAGGAGGAGGTAACGTAAAGCACG"
A) 2.38

Q) Give me measured PBM binding z-score, please, for this sequence: "AGAATGAGGTTATTAACATCAGGGAATTGCGGTC"
A) 0.42

Q) Give me measured PBM binding z-score, please, for this sequence: "TCAGACAGGTGAATGTAACTCAGGTACGCAGTCG"
A) 2.99

Q) Give me measured PBM binding z-score, please, for this sequence: "CGAACTAGGTCATTGACAGGACTGTGAATAGTAA"
A) 4.05

Q) Give me measured PBM binding z-score, please, for this sequence: "TGTCAAAGTTCAAAGGGAACGTAAGTATCCACAC"
A) 5.31

Q) Give me measured PBM binding z-score, please, for this sequence: "CTACCAAGGTGACCAAGGTCGTTGATTACTATTC"
A) -0.239

Q) Give me measured PBM binding z-score, please, for this sequence: "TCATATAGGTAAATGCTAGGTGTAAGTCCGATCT"
A) 3.9

Q) Give me measured PBM binding z-score, please, for this sequence: "TGTATGAGGTTATAAGATCAGGGAACGTTGCAAA"
A) 0.966

Q) Give me measured PBM binding z-score, please, for this sequence: "ATCGAAAGGTAGAAGGTGAGTATACCCACCCGAA"
A) 0.876

Q) Give me measured PBM binding z-score, please, for this sequence: "CATACAGGGTCAGCTAGTCCAGAGTAGGGACGGC"
A) 0.664

---

- Tested on: RARa homodimer (NR concentration 270 nM)
- protocol-description: PBM binding z-score (relative to random genomic background probes); higher = stronger binding; sequences stand for … in GC…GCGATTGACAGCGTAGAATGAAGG
Decision: PBM binding z-score compared against 0.9; not below it gives true, below it gives false.

Here are 6 sequences together with their reported answers.
GCTAGCGGGCCATTTGGGTCACTCAATGACGGGC    false
TATACAGGGTCAAAGGCCAGGGTACGAATGTCGA    true
TCTCGGAGGACACGACAGGTCAGAGCTCGACATC    false
TCTAGCAGGCCAGAGGCTCACTCAAGAGGTACGG    false
ATCGAAAGGTCGTGATGTGAGTATACAGAAAGGC    false
ATATGTAGGTTAAGGGTGATTCAGGTTGGTTCGC    true

Q) I'd appreciate it if you could say whether "CCTGCTAGGTCAATGGACAGCTAAAGCAGCTCGC" has PBM binding z-score at least equal to 0.9.
A) false

Q) I'd appreciate it if you could say whether "ATAATGAGGTTAAGATCAGGGAAACAGAATACAT" has PBM binding z-score at least equal to 0.9.
A) false

Q) I'd appreciate it if you could say whether "TCTATTAGTTGATTAGGACAACCGAAACAGCGGA" has PBM binding z-score at least equal to 0.9.
A) true

Q) I'd appreciate it if you could say whether "CCTACTGGGCCATCAGGTCATTGTTATCAACGTT" has PBM binding z-score at least equal to 0.9.
A) false
